Target: Orexin/Hypocretin receptor type 1 (Homo sapiens)
Sequence (O43613 whole entry): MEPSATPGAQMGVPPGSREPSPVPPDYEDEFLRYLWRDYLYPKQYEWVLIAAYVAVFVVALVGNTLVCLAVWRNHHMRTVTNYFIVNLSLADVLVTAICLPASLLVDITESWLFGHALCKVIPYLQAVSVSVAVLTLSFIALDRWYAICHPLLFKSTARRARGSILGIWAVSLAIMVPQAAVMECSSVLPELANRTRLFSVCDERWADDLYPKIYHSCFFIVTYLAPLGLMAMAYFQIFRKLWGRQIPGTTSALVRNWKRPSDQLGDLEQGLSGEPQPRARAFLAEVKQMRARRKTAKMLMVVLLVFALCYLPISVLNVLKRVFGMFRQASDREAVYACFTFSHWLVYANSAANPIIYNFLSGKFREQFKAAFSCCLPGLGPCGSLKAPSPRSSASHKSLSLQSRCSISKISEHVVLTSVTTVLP
Assay: Antagonist activity at human orexin receptor 1 expressed in CHO cells assessed as inhibition of orexin-A-induced calcium flux by FLIPR assay
Assay type: functional, cell-based
value_kind: IC50 (µM)

>>> numeric_readout("Cc1c(S(=O)(=O)Cc2ccccc2)c2ccccn2c1CC(=O)N(C)Cc1ccccc1")
3.78

I = CN(Cc1ccc(F)cc1)C(=O)Cn1cc(S(=O)(=O)Cc2ccc(F)cc2)c2ccccc21
II = CN(Cc1ccccc1)C(=O)Cn1nc(S(=O)(=O)Cc2ccccc2)c2ccccc21
III = Cc1c(S(=O)(=O)Cc2ccccc2)c2ccccn2c1CC(=O)N(C)Cc1ccc(F)cc1
Rank order required: IC50, descending. List the labels in the requested order.
I, III, II

The measurements presented in this section are drawn from ChEMBL document CHEMBL2412971.
